Reported TCF/Wnt firefly luciferase reporter signal values for a set of molecules
System: DLD1
Test: TCF/Wnt firefly luciferase reporter signal relative to plate median (fraction of plate median); higher = higher Wnt reporter signal
Details: 5 µM; treatment time 24 h; reporter: 7TFP
QUANTITY: TCF/Wnt firefly luciferase reporter signal

• COc1ccc(-c2coc3cc(O)ccc3c2=O)cc1 = 0.998
• CC1=C(/C=C/C(C)=C/C=C/C(C)=C/CO)C(C)(C)CCC1 = 1.14
• CC1(C)CC2C1CC[C@]1(C)CCC3C(C(=O)O)CC(=O)O[C@@]32C1 (stereo not given in full) [3-HYDROXY-4-(SUCCIN-2-YL)-CARYOLANE delta-LACTONE] = 1.07
• CN1CCC(=C2c3ccccc3CC(=O)c3sccc32)CC1 = 0.956
• CCSC(=N)N = 0.99
• C[n+]1c2cc(N)ccc2cc2ccc(N)cc21 = 1.4
• O=C(Nc1ccccc1)Nc1ccccc1 = 1.2
• O=C1NC(Cc2ccc(O)cc2)C(=O)N2CCCC12 (stereo not given) [cyclo(prolyltyrosyl)] = 0.998
• COc1cc(O)c(C(C)=O)c(OC)c1 = 0.978
• COc1cc(C/C=C/c2ccccc2)c(OC)cc1O = 1.05
• O=c1cc(-c2ccc(O)cc2)oc2ccc(O)cc12 = 1.03
• CC[C@H](/C=C/[C@@H](C)[C@H]1CC[C@H]2[C@@H]3CC=C4C[C@@H](O)CC[C@]4(C)[C@H]3CC[C@]12C)C(C)C = 1.05
• COc1cc(O)c(C(=O)c2ccccc2)cc1O = 0.891
• Nc1ccc(S(=O)(=O)NC(=O)c2ccccc2)cc1 = 0.875
• CN(C)c1ccc2nc3ccc(=[N+](C)C)cc-3sc2c1 = 1.06

###

Test system: HCT116
Assay: cell viability (CellTiter-Glo) relative to plate median (fraction of plate median); higher = more viable cells
Conditions: 10 µM; treatment time 24 h; reporter: TCF4/Wnt
Entries whose cell viability is below 1 take condition met; entries at or above 1 take condition not met.

• Cc1[nH]c(/C=C2\C(=O)Nc3ccc(S(=O)(=O)Cc4c(Cl)cccc4Cl)cc32)c(C)c1C(=O)N1CCC[C@@H]1CN1CCCC1 = condition met
• Cn1cnc(N)c2ncnc1-2 [3-Methyladenine] = condition not met
• CC[C@H](Nc1ncnc2[nH]cnc12)c1nc2cccc(F)c2c(=O)n1-c1ccccc1 = condition not met

###

Reported cell viability values for a set of compounds
System: SW480
Assay: cell viability (CellTiter-Glo) relative to plate median (fraction of plate median); higher = more viable cells
Settings: 5 µM; treatment time 24 h; reporter: 7TFP
QUANTITY: cell viability

• CCCCS(=N)(=O)CCC(N)C(=O)O (stereo unspecified) = 1.08
• CC(=O)Oc1ccc2c(c1OC(C)=O)OCC1(O)Cc3c(cc(OC(C)=O)c(OC(C)=O)c3OC(C)=O)C21 (stereo unspecified) = 0.959
• C=CCc1ccc(O)c(OC)c1 = 0.943
• CCc1ccc(CCOc2ccc(CC3SC(=O)NC3=O)cc2)nc1 (stereo unspecified) = 0.983
• C=CCSCC1Nc2cc(Cl)c(S(N)(=O)=O)cc2S(=O)(=O)N1 (stereo unspecified) = 1.03
• O=c1cc(-c2ccccc2O)oc2cc(O)ccc12 = 0.976
